The reader will find reported furin cleavage Z-score values listed item by item below.
# TGT: furin, P09958
# Sequence (P09958 whole entry): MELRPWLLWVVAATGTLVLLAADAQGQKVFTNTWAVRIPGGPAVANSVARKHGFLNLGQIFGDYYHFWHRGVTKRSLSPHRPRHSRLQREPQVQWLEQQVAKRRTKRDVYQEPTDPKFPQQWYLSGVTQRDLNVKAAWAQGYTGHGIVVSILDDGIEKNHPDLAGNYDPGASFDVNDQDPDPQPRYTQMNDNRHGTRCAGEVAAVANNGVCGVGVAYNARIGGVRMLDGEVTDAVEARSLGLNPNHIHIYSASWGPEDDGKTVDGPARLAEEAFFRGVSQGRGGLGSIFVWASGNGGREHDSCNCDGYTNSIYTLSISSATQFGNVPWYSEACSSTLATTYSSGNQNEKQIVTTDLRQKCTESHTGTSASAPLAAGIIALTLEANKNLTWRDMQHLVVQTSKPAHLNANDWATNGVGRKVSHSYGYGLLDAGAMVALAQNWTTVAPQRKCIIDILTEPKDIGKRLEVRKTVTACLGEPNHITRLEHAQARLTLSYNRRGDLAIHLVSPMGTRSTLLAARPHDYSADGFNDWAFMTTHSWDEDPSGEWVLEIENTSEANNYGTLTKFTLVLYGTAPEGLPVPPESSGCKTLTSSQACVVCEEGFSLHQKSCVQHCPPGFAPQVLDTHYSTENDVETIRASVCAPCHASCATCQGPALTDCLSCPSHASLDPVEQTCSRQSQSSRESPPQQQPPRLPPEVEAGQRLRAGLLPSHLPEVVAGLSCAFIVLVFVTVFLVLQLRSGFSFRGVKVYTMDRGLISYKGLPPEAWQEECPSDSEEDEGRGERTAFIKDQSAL
# ASSAY_REMARKS: furin cleavage Z-score vs untreated control; higher = more cleavage, active = 3.5 or more, inactive = 1 or less, 8 variable residues between constant flanks;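 also: purified furin at 1:10 enzyme:substrate in 50 mM HEPES pH 7.5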
# MEASUREMENT_PARAMETERS: 15 min
The list shows a part of the results. The true hit rate is not given.
I only need the number, thanks.

CASGHRTRRYAGNASASA [FS-192] = 8.02

input: Fill blank: measured furin cleavage Z-score of the sequence CAQHSVRKRDAGNASASA [FS-1150] is ____.
output: 12.2

input: Given the entry CAILAGYGAGAGNASASA [HC1086] , report its measured furin cleavage Z-score.
output: -0.697

input: Which furin cleavage Z-score value is on record for CAEMSRTRRYAGNASASA [FS-1319] ?
output: 8.78
